Each entry below lists one item and its recorded EC50 value.
# TESTED TARGET: μOR (Homo sapiens)
# Construct: host or cells: CHO-K1
# Sequence (P35372 whole entry): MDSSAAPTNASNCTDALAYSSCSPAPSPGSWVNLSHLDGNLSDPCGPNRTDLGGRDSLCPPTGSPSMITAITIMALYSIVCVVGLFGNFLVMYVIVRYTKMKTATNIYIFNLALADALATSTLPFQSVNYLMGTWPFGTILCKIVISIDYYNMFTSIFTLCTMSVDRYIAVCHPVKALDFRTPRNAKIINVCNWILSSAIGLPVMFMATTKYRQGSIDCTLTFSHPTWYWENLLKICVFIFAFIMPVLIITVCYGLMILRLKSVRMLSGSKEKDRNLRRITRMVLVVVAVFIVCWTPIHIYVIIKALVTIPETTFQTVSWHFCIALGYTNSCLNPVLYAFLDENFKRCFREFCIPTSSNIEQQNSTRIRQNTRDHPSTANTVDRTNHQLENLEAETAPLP
# EXPERIMENT: cell-based
# Format: cell-based
# DETAILS: read-out: μOR cAMP inhibition EC50

Example entries and their recorded answers appear below.
- CC=C1CN2CCC34C(=C(C(=O)OC)C1CC23)Nc1ccc(C#N)cc14 (stereo not drawn): > 10 µM
- CC=C1CN2CCC34c5cc(I)ccc5NC3C(C(=O)OC)C1CC24 (stereo not drawn) [Compound 22, 10-Iodo-2,16-dihydroakuammicine]: > 10 µM

Now for another entry.
QUERY: Would you mind telling me what EC50 value was observed for C=CC[N+]12CCC34C(=C(C(=O)OC)C(CC31)C(=CC)C2)Nc1ccccc14 (stereo not drawn) ?
RESULT: > 10 µM

====

# TESTED TARGET: κOR (Homo sapiens)
# Construct: host or cells: CHO-K1
# Sequence (P41145 whole entry): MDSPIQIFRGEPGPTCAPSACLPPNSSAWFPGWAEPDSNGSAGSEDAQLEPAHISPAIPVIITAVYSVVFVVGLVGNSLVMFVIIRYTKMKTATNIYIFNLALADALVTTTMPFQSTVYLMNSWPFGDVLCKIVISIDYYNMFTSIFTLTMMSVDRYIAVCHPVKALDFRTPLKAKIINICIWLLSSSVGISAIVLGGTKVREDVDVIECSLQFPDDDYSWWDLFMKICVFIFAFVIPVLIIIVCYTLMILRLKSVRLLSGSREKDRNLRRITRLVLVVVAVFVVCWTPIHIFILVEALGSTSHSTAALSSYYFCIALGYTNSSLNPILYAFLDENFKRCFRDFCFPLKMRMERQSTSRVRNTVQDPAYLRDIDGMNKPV
# EXPERIMENT: cell-based
# Format: cell-based
# DETAILS: read-out: κOR cAMP inhibition EC50
The label is Condition met for EC50 below 20 nM and Condition not met for EC50 equal to or exceeding 20 nM.

- C/C=C1/C[N+]2(CC3CC3)CC[C@]34C(=C(C(=O)OC)[C@H]1C[C@@H]32)Nc1ccc(Br)cc14 (some centres unmarked) [Compound 25]: Condition not met
- C/C=C1/CN2CC[C@]34C(=C(C(=O)OC)[C@H]1C[C@H]23)Nc1ccc(-c2ccoc2)cc14 [Compound 5, 10-(3-Furanyl)akuammicine]: Condition met

QUERY: Quick check: does CCC1CN2CCC34C(=C(C(=O)OC)C1CC23)Nc1ccc(Br)cc14 (centres unmarked) [Compound 27, 10-Bromo-19,20-dihydroakuammicine] have EC50 under 20 nM?
RESULT: Condition not met

QUERY: Quick check: does C/C=C1/CN2CC[C@]34C(=C(C(=O)OC)[C@H]1C[C@H]23)Nc1ccc(-c2ccsc2)cc14 [Compound 6, 10-(3-Thienyl)akuammicine] have EC50 under 20 nM?
RESULT: Condition met

QUERY: Quick check: does C/C=C1/CN2CC[C@]34C(=C(C(=O)OC)[C@H]1C[C@H]23)Nc1ccc(I)cc14 [Compound 3, 10-Iodoakuammicine] have EC50 under 20 nM?
RESULT: Condition met

QUERY: Quick check: does C/C=C1/CN2CC[C@]34c5cc(Br)ccc5NC3C(C(=O)OC)[C@H]1C[C@H]24 (some centres unmarked) [Compound 21, 10-Bromo-2,16-dihydroakuammicine] have EC50 under 20 nM?
RESULT: Condition not met

QUERY: Quick check: does C/C=C1/CN2CC[C@]34C(=C(C(=O)OC)[C@H]1C[C@H]23)Nc1ccc(-c2ccccc2)cc14 [Compound 4, 10-Phenylakuammicine] have EC50 under 20 nM?
RESULT: Condition met

QUERY: Quick check: does C=CC[N+]12CCC34C(=C(C(=O)OC)C(CC31)C(=CC)C2)Nc1ccccc14 (centres unmarked) [Compound 17, N-4-Allylakuammicine] have EC50 under 20 nM?
RESULT: Condition not met

QUERY: Quick check: does CC[C@@H]1CN2CC[C@]34C(=C(C(=O)OC)[C@H]1C[C@H]23)Nc1ccccc14 [Compound 13, 19,20-dihydroakuammicine] have EC50 under 20 nM?
RESULT: Condition not met

QUERY: Quick check: does C/C=C1/CN2CC[C@]34c5ccccc5NC3C(C(=O)OC)[C@H]1C[C@H]24 (some centres unmarked) [Compound 14, 2,16-dihydroakuammicine] have EC50 under 20 nM?
RESULT: Condition not met

QUERY: Quick check: does CCC1CN2CCC34c5ccccc5NC3C(C(=O)OC)C1CC24 (centres unmarked) [Compound 15, 2,16,19,20-tetrahydroakuammicine] have EC50 under 20 nM?
RESULT: Condition not met
